molecular target: human ether-à-go-go-related gene (hERG) potassium channel (human); experiment: primary screen, population patch clamp on CHO cells stably expressing hERG; higher = less effect of the substance;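 also: peak tail current of the secondary pulse compared with the same well before compound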
Sequence (Q12809 whole entry, looked up): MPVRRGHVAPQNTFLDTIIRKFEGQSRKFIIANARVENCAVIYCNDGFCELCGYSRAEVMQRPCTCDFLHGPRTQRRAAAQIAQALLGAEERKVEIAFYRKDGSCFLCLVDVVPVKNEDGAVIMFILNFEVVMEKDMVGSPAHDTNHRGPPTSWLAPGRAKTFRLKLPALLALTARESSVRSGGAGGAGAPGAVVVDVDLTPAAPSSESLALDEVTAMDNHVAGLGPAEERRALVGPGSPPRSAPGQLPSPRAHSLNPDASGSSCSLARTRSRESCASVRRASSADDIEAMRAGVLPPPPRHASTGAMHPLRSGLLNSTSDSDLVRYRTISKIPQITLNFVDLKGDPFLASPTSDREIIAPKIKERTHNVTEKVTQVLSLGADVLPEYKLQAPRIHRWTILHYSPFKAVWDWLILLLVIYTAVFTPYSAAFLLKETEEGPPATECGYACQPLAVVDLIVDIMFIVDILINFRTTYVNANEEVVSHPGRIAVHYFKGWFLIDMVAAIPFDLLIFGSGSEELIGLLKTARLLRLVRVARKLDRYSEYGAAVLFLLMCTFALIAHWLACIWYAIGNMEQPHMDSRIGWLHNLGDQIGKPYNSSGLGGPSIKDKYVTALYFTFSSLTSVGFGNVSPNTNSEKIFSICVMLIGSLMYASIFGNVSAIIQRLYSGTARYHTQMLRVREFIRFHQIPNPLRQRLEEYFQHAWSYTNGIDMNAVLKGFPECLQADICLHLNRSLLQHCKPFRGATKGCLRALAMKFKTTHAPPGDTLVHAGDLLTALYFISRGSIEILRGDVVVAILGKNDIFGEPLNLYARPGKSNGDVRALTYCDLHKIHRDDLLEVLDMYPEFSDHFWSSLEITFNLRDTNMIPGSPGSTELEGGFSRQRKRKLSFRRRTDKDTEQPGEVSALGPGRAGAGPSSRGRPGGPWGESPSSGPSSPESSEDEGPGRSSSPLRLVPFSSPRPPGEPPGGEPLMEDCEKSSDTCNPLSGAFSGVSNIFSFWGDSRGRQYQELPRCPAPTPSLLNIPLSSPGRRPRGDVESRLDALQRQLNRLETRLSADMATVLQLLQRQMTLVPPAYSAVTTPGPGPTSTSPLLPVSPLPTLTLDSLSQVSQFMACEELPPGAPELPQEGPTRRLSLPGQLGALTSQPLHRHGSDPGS
Screen size: about 310,000 compounds; about 14,000 (4.5%) showed an effect of 50% or more. The effect is printed as a negative number. Many of the other results were omitted from the sample, so strong results are more common in it than they were.
I'd be grateful if you could share measured hERG current change (%, negative = inhibition) at 10uM for these entries.
One number for each entry, in %.

// for each compound below, give its hERG current change (%, negative = inhibition) at 10uM
1. Cc1cc(N)n(-c2ccc(C(=O)O)cc2)n1.Cl
2. Cc1ccc(C)c(NC(=O)NNC(=O)c2ccc3ccccc3c2O)c1

[13.6, 11.4]

// for each compound below, give its hERG current change (%, negative = inhibition) at 10uM
1. COC(=O)c1cc(NC(=O)Cn2nc(C)n3cccc3c2=O)cc(C(=O)OC)c1
2. O=C(Nc1ccc(CN2CCOCC2)cc1)c1ccc(N2CCCC2)c([N+](=O)[O-])c1
3. CCOc1ccc(S(=O)(=O)N(C)CC(=O)NCc2ccc3c(c2)OCO3)cc1
4. CC(NC(=O)c1cnc2n(c1=O)CCS2)c1ccccc1 (stereo not shown)
5. Cc1cc(Cl)ccc1OCCCC(=O)NNC(=O)c1ccncc1

1. 4.88
2. -21.4
3. -64.4
4. 3.42
5. -30.2

// for each compound below, give its hERG current change (%, negative = inhibition) at 10uM
1. CCSc1ccccc1C(=O)N1CCCC1
2. CN(CC(=O)NCc1ccc2c(c1)OCO2)S(=O)(=O)c1ccc(F)cc1
3. CN(CCCC(=O)NCCc1ccccc1)S(=O)(=O)c1ccc([N+](=O)[O-])cc1
4. CCSc1ccccc1C(=O)Nc1ccc([N+](=O)[O-])cc1OC

-5.81
-8.53
-37.6
-51.9

// for each compound below, give its hERG current change (%, negative = inhibition) at 10uM
1. Cc1cccc(OCc2n[nH]c(=S)n2-c2ccccc2)c1
2. O=C(NCCn1cccn1)C1CCC(=O)N(CCc2ccc(Cl)cc2)C1 (stereo not shown)

1. 10.1
2. 5.51
